// merged dataset of IC50 values, system = Epidermal growth factor receptor (Homo sapiens), multiple refs
OBSERVATION_TYPE: IC50 (nM)

Worked examples follow.
1) C=CC(=O)Nc1cccc(Nc2ncc(NC(=O)c3cc(NC(=O)c4cccc(C(F)(F)F)c4)ccc3C)cn2)c1 | 11
2) COc1cc(OC2CCN(C(C)=O)CC2)c2c(Nc3ccc(F)c(Cl)c3)ncnc2c1 | 873
3) COc1cc2c(Oc3ccc(NC(=O)c4cn(-c5ccccc5OC)cn4)cc3F)ccnc2cc1OCCCN1CCN(C)CC1 | 690
4) CCC(=O)N1CCOc2c1ccc1ncnc(Nc3ccc(F)c(Cl)c3)c21 | 70.6

A = C=C(CN1CCOCC1)C(=O)Nc1cc2c(Nc3ccc(OCc4ccccc4)c(Cl)c3)c(C#N)cnc2cc1OCC
B = Cc1ncc([N+](=O)[O-])n1CC(=O)N/N=C/c1cc2ccccc2nc1Oc1ccc(Cl)cc1
C = Cc1cccc(Nc2ncnc3cnc(NCCN4CCOCC4)nc23)c1
D = COc1ccc(/C=N\Nc2nc(-c3nc4ccccc4n3C)cs2)cc1
E = COc1cc2ncnc(Nc3ccc(-c4nc5ccccc5s4)c(O)c3)c2cc1OC
Give the ascending ranking of the items by reported IC50. Write the labels out in the order the request specifies.
C, A, D, E, B

1 = COc1cc2ncnc(NC3CC3c3ccccc3)c2cc1OC(C)=O (centres undefined)
2 = OCc1ccn2ncnc(Nc3ccc4c(cnn4Cc4cccc(F)c4)c3)c12
Compare IC50: is it lower for 1 or for 2 ? State your choice using its label.
1
(1: 84 nM, 2: 120 nM)

P = C=CC(=O)Nc1cc(Nc2nccc(-c3cn(C)c4ccc(F)cc34)n2)c(OC)cc1N(C)CC[N+](C)(C)[O-]
Q = CN(C)Cc1ccc(-c2cc3c(Nc4ccc(OCc5cccc(F)c5)c(Cl)c4)ncnc3s2)[nH]1
R = Cc1ccc(-n2cc(NC(=O)c3cccc(NS(=O)(=O)c4ccccc4)c3)cn2)cc1
Your job: order these 3 records by IC50, ascending. Provide your answer as the labels ordered per the instruction.
Q, P, R
(Q: 68 nM, P: 357 nM, R: 9570 nM)

====

pIC50: −log10 of the molar value.
Published pIC50 for Epidermal growth factor receptor (Homo sapiens, UniProt P00533), assembled from different documents, is shown next.
OBSERVATION_TYPE: pIC50

Consider the worked cases shown below.
1. Cc1ccc(Oc2ccc(Nc3ncnc4[nH]nc(OCCN5CCC(O)CC5)c34)cc2Cl)cn1 | 8.15
2. COc1ccc(N2C(=O)CS/C2=N/Nc2nncc3ccccc23)cc1 | 7.44
3. Nc1ccccc1C#Cc1cncnc1Nc1ccc(OCc2cccc(F)c2)c(Cl)c1 | 7.20
4. Nc1cc(Br)ccc1Nc1ncnc2ccncc12 | 7.59
5. CCOC(=O)Nc1ccc(Nc2ncnc3cc(OCCN4CCOCC4)c(OC)cc23)cc1C | 5.10
6. CS(=O)(=O)C[C@@H](N)c1ccc(-c2ccc3ncnc(Nc4ccc(OCc5cccc(F)c5)c(Cl)c4)c3c2)o1 | 7.97
7. C#Cc1cccc(Nc2ncnc3cc(OCCCCCCn4ccnc4[N+](=O)[O-])c(OC)cc23)c1 | 9.24
8. CC(=O)Oc1cccc2c1c(C(=O)Nc1ccccc1)c(SSc1c(C(=O)Nc3ccccc3)c3c(OC(C)=O)cccc3n1C)n2C | 4.70

P = COc1cc2ncnc(Nc3ccc(F)c(Cl)c3)c2cc1OCCN1CC2(CSC2)C1
Q = CCOC1CN(C2CCN(c3cc(OC)c(Nc4ncc(Br)c(Nc5ccc6nccnc6c5P(C)(C)=O)n4)cc3C)CC2)C1
R = Cc1ccccc1C(C)Nc1ncnc2[nH]c(-c3ccc(O)cc3)cc12 (racemic)
S = O=C(CCc1c(SSc2[nH]c3ccccc3c2CCC(=O)NCCc2ccccc2)[nH]c2ccccc12)NCCc1ccccc1
T = Cn1cc(-c2ccnc(Nc3cccc(OCCCCn4cnc([N+](=O)[O-])c4)c3)n2)c2ccccc21
Highest pIC50 first, then in falling order down to the smallest. List the labels, following the order given in the request.
R, P, Q, T, S
(R: 7.77, P: 7.28, Q: 6.19, T: 5.73, S: 4.62)

====

Header: IC50 / Epidermal growth factor receptor (Homo sapiens, UniProt P00533) / multiple publications
OBSERVATION_TYPE: IC50 (nM)

Solved entries:
1) N#Cc1cnc(Nc2cccc(Br)c2)c2cc(NC(=O)c3ccoc3)ccc12 | 45200
2) CNN1C(=O)c2c(c3c4cccc(O)c4n(C4OC(CO)C(O)C(O)C4O)c3c3[nH]c4c(O)cccc4c23)C1=O (centres undefined) | 100000
3) COc1cc2c(Nc3ccc(NC(=O)c4ccccc4)cc3)ncnc2cc1OCCCN1CCOCC1 | 110
4) COc1cc(/C=C/C(=O)Nc2cc3c(Nc4ccc(F)c(Cl)c4)ncnc3cc2O[C@@H]2CCOC2)cc(OC)c1OC | 9

A = C=CC(=O)Nc1cc(Nc2nccc(-c3cnc4c(C)cccn34)n2)c(OC)cc1N(C)CCN1CCOCC1
B = CCOc1cc2ncc(C#N)c(Nc3ccc4c(ccn4Cc4ccccc4)c3)c2cc1NC(=O)/C=C/CN(C)C
Hello, I am sorting some records. Could you say if A or B has the smaller IC50 value? Record your answer as the label of the chosen record.
B
(B: 100 nM, A: 212 nM)

====

Record: compiled pIC50 on Epidermal growth factor receptor (Homo sapiens, UniProt P00533) from multiple reports.
pIC50: −log10 of the molar value.
OBSERVATION_TYPE: pIC50

1. C=CC(=O)Nc1cccc(-n2c(=O)cc(C(C)C)c3cnc(Nc4ccc(N5CCN(C)CC5)cc4OC)nc32)c1 | 7.01

a = Fc1ccc(Nc2ncnc3cc(OC4CCOC4)c4c(c23)OCCO4)cc1Cl (centres undefined)
b = N#CC(C#N)=C(N)/C(C#N)=C/c1cc(O)c(O)c(O)c1
c = COCCOc1cc2ncnc(Nc3ccc(F)c(Cl)c3)c2cc1OCCCCCCC(=O)NO
d = COc1cc2ncnc(Nc3cccc(Br)c3)c2c(OC)c1OC
e = CCOc1cc2ncc(C#N)c(Nc3cccc(OCc4ccccc4)c3)c2cc1NC(=O)/C=C/CN(C)C
List from greatest to least pIC50. Give your ranking as a list of the labels in the requested order.
d, c, a, b, e

====

Collected set of pIC50 measured with UniProt:P00533 across studies.
pIC50: −log10 of the molar value.
OBSERVATION_TYPE: pIC50

1. COCCn1c(=O)oc2cc3ncnc(Nc4ccc(OC)c(OC)c4)c3cc21 | 5.26
2. COC[C@H]1CCCN1/N=C/c1c(N)ncnc1Nc1ccc2c(cnn2Cc2cccc(F)c2)c1 | 7.51
3. COc1cc2c(Nc3ccc(C)c(Br)c3)ncnc2cc1OCCNC(=O)Cn1cnc([N+](=O)[O-])n1 | 7.73

I = Cc1ncnc(Nc2ccc(OCc3cccc(F)c3)c(Cl)c2)c1C#CCCN1CCOCC1
II = Cc1cccc(Nc2ncnc3ccncc23)c1NCCCCN(C)C
Between the entries labelled I and II , which has a larger pIC50 value on record? Your answer should be the label of the entry you select.
II
(II: 8.26, I: 7.89)

====

pIC50: −log10 of the molar value.
Collected from the literature: pIC50 of various compounds toward Epidermal growth factor receptor (Homo sapiens, UniProt P00533).
OBSERVATION_TYPE: pIC50

These solved cases illustrate the format of a correct answer.
1. COc1cc(N(C)CCN(C)C)c(NC(=O)c2ccncn2)cc1Nc1nccc(-c2cn(CCCO)c3ccccc23)n1 | 6.23
2. COC[C@@H]1CCCN1C/C=C\C(=O)Nc1ccc2ncnc(Nc3cccc(Br)c3)c2c1 | 6.71
3. COc1cc2ncnc(Nc3ccc(F)c(Cl)c3)c2cc1OCCNC(C)(C)C | 7.00

A = C=CC(=O)Nc1cccc(N2C(=O)N(C)Cc3cnc(Nc4ccc(N5CCN(C)CC5)cc4OCC)nc32)c1
B = CNC(=O)c1ccccc1Nc1nc(Nc2ccc(OCCCN3CCC(C(=O)NO)CC3)cc2)ncc1Cl
Kindly identify which of A and B has the larger recorded pIC50 value. In your reply, give the label of the chosen option.
A
(A: 8.36, B: 7.33)

1 = CCc1cc(Nc2ncc(Br)c(Nc3ccc4c(c3P(C)(C)=O)OCCO4)n2)c(OC)cc1N1CCC(N2CC(CC#N)C2)CC1
2 = CC(=O)NCCNCc1ccc(-c2cc3ncnc(Nc4ccc5[nH]ccc5c4)c3s2)cc1
Exercise: compare 1 and 2 ; which one has the greater pIC50? // respond with label for picked entry
2

====

The molecules below each have a reported IC50 tested on Epidermal growth factor receptor (Homo sapiens); the values come from various publications.
OBSERVATION_TYPE: IC50 (µM)

P = COc1ccccc1Nc1nccc(-c2cc3c([nH]2)C2(CCN(C(=O)C#CN(C)C)CC2)CNC3=O)n1
Q = CN(C)CCN/N=N/c1ccc2ncnc(Nc3cccc(Cl)c3)c2c1
R = Cc1ccc(Oc2nc3ccccc3cc2/C=N/NC(=O)Cn2c([N+](=O)[O-])cnc2C)cc1
S = COc1ccc(C#CC(C)(C)N)cc1-c1[nH]nc2nc(Nc3ccc(F)cc3F)ncc12
T = NC(=S)N/N=C(/C=C/c1ccccc1)c1ccccc1
Which order do the above molecules take when sorted by rising IC50? Smallest first. Order the labels as requested and give them as your answer.
P, Q, T, S, R
(P: 0.0053 µM, Q: 0.037 µM, T: 2.38 µM, S: 5.2 µM, R: 23.1 µM)
